Target: T1, Cyno HER3: CD33-[Cyno HER3, residues 20-643]-TAG (cynomolgus monkey, UniProt G7PIG5 20-643)
T1 construct: also called cy HER3-Tag; not shown: C-terminal TAG (e.g. FLAG TAG)
Assay: solution equilibrium titration (SET), IgG, ECL read-out
Rule for this label: Yes means Kd is less than 0.6 nM; No means Kd is at least 0.6 nM.

BINDER | LABEL VALUE
MOR12516 (antibody, human IgG1, lambda, V domains shown, Tested as IgG) VH: QVQLVQSGAEVKKPGASVKVSCKASGYTFTSYDIHWVRQAPGQGLEWMGRIDPYSGNTNYAQKFQGRVTMTRDTSISTAYMELSRLRSEDTAVYYCARGSFYTRDSYFDVWGQGTLVTVSS VL: DIALTQPASVSGSPGQSITISCTGTSSDVGTYNQVSWYQQHPGKAPKLMIYGVSKRPSGVSNRFSGSKSGNTASLTISGLQAEDEADYYCQSRDTYRPVKVFGGGTKLTVLG | No
MOR12603 (antibody, human IgG1, kappa, V domains shown, Tested as IgG) VH: QVQLVQSGAEVKKPGSSVKVSCKASGGTFSSYAISWVRQAPGQGLEWMGLIIPRYGKARYAQKFQGRVTITADESTSTAYMELSSLRSEDTAVYYCARNWPYYYMDFWGQGTLVTVSS VL: DIVLTQSPATLSLSPGERATLSCRASQNIVFNLAWYQQKPGQAPRLLIYDASNRATGVPARFSGSGSGTDFTLTISSLEPEDFAVYYCQQTKNRPPTFGQGTKVEIKR | No
MOR12615 (antibody, human IgG1, lambda, V domains shown, Tested as IgG) VH: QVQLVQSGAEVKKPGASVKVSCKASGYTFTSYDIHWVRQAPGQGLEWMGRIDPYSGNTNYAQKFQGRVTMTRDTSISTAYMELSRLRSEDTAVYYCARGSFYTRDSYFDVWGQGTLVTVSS VL: DIALTQPASVSGSPGQSITISCTGTSSDVGTYNQVSWYQQHPGKAPKLMIYGVSKRPSGVSNRFSGSKSGNTASLTISGLQAEDEADYYCSSRDLIGHYVFGGGTKLTVLG | Yes
MOR14534 (antibody, human IgG1, kappa, V domains shown, Tested as IgG) VH: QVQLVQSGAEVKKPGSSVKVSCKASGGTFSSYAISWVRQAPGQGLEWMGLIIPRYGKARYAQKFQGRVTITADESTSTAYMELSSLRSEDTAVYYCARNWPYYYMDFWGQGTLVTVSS VL: EIVLTQSPATLSLSPGERATLSCRASQNIVFNLAWYQQKPGQAPRLLIYDASNRATGIPARFSGSGSGTDFTLTISSLEPEDFAVYYCQQTKNRPPTFGQGTKVEIKR | No
